- target-system: human MCH receptor (Homo sapiens, UniProt Q99705)
- Sequence (Q99705 whole entry): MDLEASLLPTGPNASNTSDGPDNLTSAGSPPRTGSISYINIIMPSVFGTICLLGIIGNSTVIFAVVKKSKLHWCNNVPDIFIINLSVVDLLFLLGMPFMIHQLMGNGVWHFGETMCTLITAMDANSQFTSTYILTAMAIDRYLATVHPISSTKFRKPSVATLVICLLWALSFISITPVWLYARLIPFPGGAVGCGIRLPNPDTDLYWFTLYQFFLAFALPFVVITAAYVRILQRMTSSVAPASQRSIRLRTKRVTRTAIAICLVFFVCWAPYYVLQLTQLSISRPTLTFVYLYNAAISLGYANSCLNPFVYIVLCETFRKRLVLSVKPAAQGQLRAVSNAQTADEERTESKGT
- assay-overview: Functional measurement of cellular calcium flow (FLIPR) in recombinant HEK293 cells expressing human MCH receptor
- study-conditions: cellular assay, calcium flow after addition of agonist (MCH), HEK293 (PEAK Stable Cells) expressing human MCH receptor
pIC50: −log10 of the molar value.
experimental-readout: pIC50

These recorded examples may help you get a feel for the data.
CN(C)CCn1ccc2cc(NC(=O)Nc3ccc(N4CCSCC4)cc3)ccc21 [Example 26] = 6.04
CN(C)CCn1ccc2cc(NC(=O)Nc3ccc(Oc4cccc(Cl)c4)cc3)ccc21 [Example 77] = 6.15
Cc1cc2cc(NC(=O)Nc3ccc(Oc4ccccc4)cc3)ccc2n1CCN(C)C [Example 19] = 6.15
CC1CCN(c2ccc(NC(=O)Nc3ccc4c(ccn4CCN(C)C)c3)cc2)CC1 [Example 33] = 5.91

a = CN(C)CCn1ccc2cc(NC(=O)Nc3ccc(Oc4ccccc4)nc3)ccc21 [Example 106]
b = COc1ccccc1Oc1ccc(NC(=O)Nc2ccc3c(ccn3CCN(C)C)c2)cc1 [Example 76]
Problem: Decide: a or b , by lowest recorded pIC50. Returns: label corresponding to the selected item.
Solution: b
